Biological target: Glutamate NMDA receptor
Assay: In vitro ability to inhibit depolarizations induced by 40 uM NMDA in a cortical slice (NMDA antagonist)
Format: functional
endpoint-label: pIC50
Give bare numbers, as −log10 of the molar value.

Return reported pIC50. Input compound: O=C(O)[C@H]1C[C@@H](CCCc2nnn[nH]2)CCN1 4.91

* * *

Target: Glutamate NMDA receptor
Test: Compound was tested in vitro for its ability to inhibit depolarizations induced by 40 uM NMDA in a cortical slice(NMDA antagonist)
Format: functional
endpoint-label: pIC50
One number for each entry, as −log10 of the molar value.

Return reported pIC50. Input compound: O=C(O)[C@H]1C[C@@H](CCc2nnn[nH]2)CCN1 5.09
